Tested on: 786-0 renal
Assay: NCI tumour cell line growth inhibition, 48 h
Measured TGI values are reported for all entries that follow.
Measured metric: TGI

[
  {
    "Molecule": "C=CC(=O)NCCOc1cccc(Nc2cc(NCCCNC(=O)C3CCC3)c(Br)cn2)c1",
    "Measured metric": "TGI",
    "Meas value": "> 25 µM"
  },
  {
    "Molecule": "O=[N+]([O-])c1cccc(/C=C/c2ccccn2)c1",
    "Measured metric": "TGI",
    "Meas value": "> 100 µM"
  },
  {
    "Molecule": "c1ccc(CN2CCCN3CCN(CCCN(Cc4ccccc4)CC3)CC2)cc1",
    "Measured metric": "TGI",
    "Meas value": "> 100 µM"
  },
  {
    "Molecule": "CN/C=C(/c1ccc(OC)cc1)C(O)c1ccc(OC)c(OC)c1 (configuration not stated)",
    "Measured metric": "TGI",
    "Meas value": "> 100 µM"
  },
  {
    "Molecule": "COc1cc(OC)cc(-n2c(N)c(-c3nc4ccccc4s3)c3ccc([N+](=O)[O-])cc3c2=O)c1",
    "Measured metric": "TGI",
    "Meas value": "> 100 µM"
  },
  {
    "Molecule": "Nc1ccc(-c2ccc(Nc3cc(S(=O)(=O)O)c(N)c4c3C(=O)c3ccccc3C4=O)cc2)c(S(=O)(=O)O)c1",
    "Measured metric": "TGI",
    "Meas value": "> 100 µM"
  },
  {
    "Molecule": "Cc1nc2c(=O)n(C)c(=O)nc-2n(CCO)c1C",
    "Measured metric": "TGI",
    "Meas value": "> 100 µM"
  },
  {
    "Molecule": "COc1cc(OC)cc(-c2ccc(-c3ccc(C(=N)N)s3)s2)c1",
    "Measured metric": "TGI",
    "Meas value": "3.06 µM"
  },
  {
    "Molecule": "O=S(=O)(CC#CCCCOCC#Cc1ccccc1C#CCS(=O)(=O)c1ccccc1)c1ccccc1",
    "Measured metric": "TGI",
    "Meas value": "35.3 µM"
  },
  {
    "Molecule": "O=C1OCC2=C1C(c1cccc(C(F)(F)F)c1)c1cc3c(cc1N2CCO)OCO3 (configuration not stated)",
    "Measured metric": "TGI",
    "Meas value": "> 50 µM"
  },
  {
    "Molecule": "C=C1CC23CCC4C(C)(C(=O)O)CCCC4(C)C2CCC1C3 (configuration not stated)",
    "Measured metric": "TGI",
    "Meas value": "> 100 µM"
  },
  {
    "Molecule": "CC(N)(Cc1c[nH]c2ccccc12)C(=O)O (configuration not stated)",
    "Measured metric": "TGI",
    "Meas value": "> 2500 µM"
  },
  {
    "Molecule": "COc1cc(-c2nc3ccccc3[nH]2)ccc1OCC(=O)N=Nc1c(O)[nH]c2ccc(Cl)cc12",
    "Measured metric": "TGI",
    "Meas value": "3.53 µM"
  },
  {
    "Molecule": "FC(F)(F)c1ccc2c(c1)nc(Cc1ccc(Cl)c(Cl)c1)n2CC1CCCN2CCCCC12 (configuration not stated)",
    "Measured metric": "TGI",
    "Meas value": "30.7 µM"
  },
  {
    "Molecule": "COc1ccc(C(=O)Nc2ccc(S(=O)(=O)NCC(=O)O)cc2)cc1",
    "Measured metric": "TGI",
    "Meas value": "> 100 µM"
  },
  {
    "Molecule": "CCOC(=O)C1(Br)C(c2ccccc2)NC(=O)N(C2OC(COC(=O)c3ccccc3)C(OC(=O)c3ccccc3)C2OC(=O)c2ccccc2)C1(C)Br (configuration not stated)",
    "Measured metric": "TGI",
    "Meas value": "> 100 µM"
  },
  {
    "Molecule": "c1ccc(CCCNc2nnnc3ccccc23)cc1",
    "Measured metric": "TGI",
    "Meas value": "> 100 µM"
  },
  {
    "Molecule": "CCOC(=O)CCSS(=O)(=O)C(F)(F)F",
    "Measured metric": "TGI",
    "Meas value": "> 100 µM"
  },
  {
    "Molecule": "O=S(Nc1ccccc1)c1ccc(-c2ccccc2)cc1 (configuration not stated)",
    "Measured metric": "TGI",
    "Meas value": "> 100 µM"
  },
  {
    "Molecule": "OC1CSCCCSCCSCCCSC1",
    "Measured metric": "TGI",
    "Meas value": "> 100 µM"
  },
  {
    "Molecule": "O=[N+]([O-])c1ccc(/C=N\\Nc2ccc([N+](=O)[O-])cn2)cc1",
    "Measured metric": "TGI",
    "Meas value": "> 100 µM"
  },
  {
    "Molecule": "COc1ccc(OC)c(/C=C/C(=O)C(C)(C)C)c1",
    "Measured metric": "TGI",
    "Meas value": "36.9 µM"
  }
]

Where these numbers come from: PubChem BioAssay (NCI)
